Attribution: patent US20250326771A1

target: cIAP2-BIR2 (Homo sapiens (Human), UniProt Q13489); test: BIR binding assay (FRET competition), cIAP2 BIR2
Sequence (Q13489 158-242): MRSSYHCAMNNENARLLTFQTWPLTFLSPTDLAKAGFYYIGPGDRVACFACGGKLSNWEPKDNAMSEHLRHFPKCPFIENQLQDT
observation type: IC50

# return recorded IC50 for entry C[C@@H]1CN(CC(=O)N2CC(C)(C)c3[nH]c(=O)c(Cc4ccc(F)cc4)cc32)[C@@H](CN2CCO[C@H](COCc3cccc(COC[C@@H]4CN(C[C@H]5CN[C@H](C)CN5CC(=O)N5CC(C)(C)c6[nH]c(=O)c(Cc7ccc(F)cc7)cc65)CCO4)n3)C2)CN1
3.16 to 10 µM

# return recorded IC50 for entry C[C@@H]1CN(CC(=O)N2CC(C)(C)c3[nH]c(=O)c(Cc4ccc(F)cc4)cc32)[C@@H](CN2CCO[C@H](C(=O)N3CCCN(C(=O)[C@@H]4CN(C[C@H]5CN[C@H](C)CN5CC(=O)N5CC(C)(C)c6[nH]c(=O)c(Cc7ccc(F)cc7)cc65)CCO4)CC3)C2)CN1
1 to 3.16 µM

# return recorded IC50 for entry C[C@@H]1CN(CC(=O)N2CC(C)(C)c3[nH]c(=O)c(Cc4ccc(F)cc4)cc32)[C@@H](CN2CCN(C(=O)COc3cccc(OCC(=O)N4CCN(C[C@H]5CN[C@H](C)CN5CC(=O)N5CC(C)(C)c6[nH]c(=O)c(Cc7ccc(F)cc7)cc65)[C@H](C)C4)c3)C[C@H]2C)CN1
1 to 3.16 µM

# return recorded IC50 for entry C[C@@H]1CN(CC(=O)N2CC(C)(C)c3ncc(Nc4ccc(F)cc4)cc32)[C@@H](CN2CCO[C@H](COc3cccc(OC[C@@H]4CN(C[C@H]5CN[C@H](C)CN5CC(=O)N5CC(C)(C)c6ncc(Nc7ccc(F)cc7)cc65)CCO4)c3)C2)CN1
10 to 51.3 µM

----------
molecular target: cIAP1-BIR3 (Homo sapiens (Human), UniProt Q13490); assay: BIR binding assay (FRET competition), cIAP1 BIR3; settings: fold separation (FS) for cIAP1
Sequence (Q13490 253-363): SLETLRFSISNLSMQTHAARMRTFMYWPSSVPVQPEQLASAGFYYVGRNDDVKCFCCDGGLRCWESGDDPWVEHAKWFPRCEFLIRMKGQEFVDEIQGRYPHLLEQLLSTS
observation type: cIAP1 BIR3 vs BIR2 separation window

INSERT INTO measurements (structure_smiles_string, system_tested, observation_type, experimental_value) VALUES
  ('C[C@@H]1CN(CC(=O)N2CC(C)(C)c3[nH]c(=O)c(Cc4ccc(F)cc4)cc32)[C@@H](CN2CCO[C@@H](COc3cccc(OC[C@H]4CN(C[C@H]5CN[C@H](C)CN5CC(=O)N5CC(C)(C)c6[nH]c(=O)c(Cc7ccc(F)cc7)cc65)CCO4)c3)C2)CN1', 'cIAP1-BIR3 (Homo sapiens (Human), UniProt Q13490)', 'cIAP1 BIR3 vs BIR2 separation window', '+++ (10,000>FS>1,000)'),
  ('C[C@@H]1CN(CC(=O)N2CC(C)(C)c3[nH]c(=O)c(Cc4ccc(F)cc4)cc32)[C@@H](CN2CCO[C@@H](COCCCCOC[C@H]3CN(C[C@H]4CN[C@H](C)CN4CC(=O)N4CC(C)(C)c5[nH]c(=O)c(Cc6ccc(F)cc6)cc54)CCO3)C2)CN1', 'cIAP1-BIR3 (Homo sapiens (Human), UniProt Q13490)', 'cIAP1 BIR3 vs BIR2 separation window', '+++ (10,000>FS>1,000)');

----------
tested on: Jurkat HIV-luciferase clones; experiment: Jurkat latency reversal assay; format: cell-based; details: Homo sapiens, 48 h; Jurkat latency reversal assay potency; read-out: Jurkat pEC50 (converted)
observation type: EC50

# return recorded EC50 for entry C[C@@H]1CN(CC(=O)N2CC(C)(C)c3[nH]c(=O)c(Cc4ccc(F)cc4)cc32)[C@@H](CN2CCO[C@H](C(=O)NCCCCNC(=O)[C@@H]3CN(C[C@H]4CN[C@H](C)CN4CC(=O)N4CC(C)(C)c5[nH]c(=O)c(Cc6ccc(F)cc6)cc54)CCO3)C2)CN1
63.1 to 316 nM

# return recorded EC50 for entry C[C@@H]1CN(CC(=O)N2CC(C)(C)c3[nH]c(=O)c(Cc4ccc(F)cc4)cc32)[C@@H](CN2CCO[C@H](C(=O)NCCCCCNC(=O)[C@@H]3CN(C[C@H]4CN[C@H](C)CN4CC(=O)N4CC(C)(C)c5[nH]c(=O)c(Cc6ccc(F)cc6)cc54)CCO3)C2)CN1
63.1 to 316 nM

----------
target: cIAP1-BIR3 (Homo sapiens (Human), UniProt Q13490); assay: BIR binding assay (FRET competition), cIAP1 BIR3
pIC50: −log10 of the molar value.
Kindly supply the reported pIC50 values for the records listed here.

# return recorded pIC50 for entry C[C@@H]1CN(CC(=O)N2CC(C)(C)c3[nH]c(=O)c(Cc4ccc(F)cc4)cc32)[C@@H](CN2CCC[C@H](NC(=O)Cc3cccc(CC(=O)N[C@H]4CCCN(C[C@H]5CN[C@H](C)CN5CC(=O)N5CC(C)(C)c6[nH]c(=O)c(Cc7ccc(F)cc7)cc65)C4)c3)C2)CN1 [Example 41]
6.30 to 7.50

# return recorded pIC50 for entry C[C@@H]1CN(CC(=O)N2CC(C)(C)c3[nH]c(=O)c(Cc4ccc(F)cc4)cc32)[C@@H](CN2CCO[C@H](COCc3c(F)c(F)c(COC[C@@H]4CN(C[C@H]5CN[C@H](C)CN5CC(=O)N5CC(C)(C)c6[nH]c(=O)c(Cc7ccc(F)cc7)cc65)CCO4)c(F)c3F)C2)CN1 [Example 85]
7.80 to 8.10

# return recorded pIC50 for entry C[C@@H]1CN(CC(=O)N2CC(C)(C)c3[nH]c(=O)c(Cc4ccc(F)cc4)cc32)[C@@H](CN2CCO[C@H](COc3ccc(Oc4cccc(Oc5ccc(OC[C@@H]6CN(C[C@H]7CN[C@H](C)CN7CC(=O)N7CC(C)(C)c8[nH]c(=O)c(Cc9ccc(F)cc9)cc87)CCO6)cc5)c4)cc3)C2)CN1 [Example 60]
6.30 to 7.50

# return recorded pIC50 for entry C[C@@H]1CN(CC(=O)N2CC(C)(C)c3[nH]c(=O)c(Cc4ccc(F)cc4)cc32)[C@@H](CN2CCO[C@H](C(=O)N(C)CCCCCCN(C)C(=O)[C@@H]3CN(C[C@H]4CN[C@H](C)CN4CC(=O)N4CC(C)(C)c5[nH]c(=O)c(Cc6ccc(F)cc6)cc54)CCO3)C2)CN1 [Example 124]
7.80 to 8.10

# return recorded pIC50 for entry C[C@@H]1CN(CC(=O)N2CC(C)(C)c3[nH]c(=O)c(Cc4ccc(F)cc4)cc32)[C@@H](CN2CCO[C@H](COc3ccc(C(C)(C)c4ccc(C(C)(C)c5ccc(OC[C@@H]6CN(C[C@H]7CN[C@H](C)CN7CC(=O)N7CC(C)(C)c8[nH]c(=O)c(Cc9ccc(F)cc9)cc87)CCO6)cc5)cc4)cc3)C2)CN1 [Example 62]
6.30 to 7.50

# return recorded pIC50 for entry C[C@@H]1CN(CC(=O)N2CC(C)(C)c3[nH]c(=O)c(Cc4ccc(F)cc4)cc32)[C@@H](CN2CCO[C@H](C(=O)NCCCCCCCCNC(=O)[C@@H]3CN(C[C@H]4CN[C@H](C)CN4CC(=O)N4CC(C)(C)c5[nH]c(=O)c(Cc6ccc(F)cc6)cc54)CCO3)C2)CN1 [Example 119]
8.10 to 8.86

# return recorded pIC50 for entry C[C@@H]1CN(CC(=O)N2CC(C)(C)c3ncc(Cc4ccccc4)cc32)[C@@H](CN2CCO[C@H](COc3cccc(OC[C@@H]4CN(C[C@H]5CN[C@H](C)CN5CC(=O)N5CC(C)(C)c6ncc(Cc7ccccc7)cc65)CCO4)c3)C2)CN1 [Compound 150]
7.80 to 8.10

----------
Kindly supply the reported pIC50 values for the records listed here.
molecular target: cIAP1-BIR2 (Homo sapiens (Human)); test: BIR binding assay (FRET competition), cIAP1 BIR2
Sequence (Q13490 173-257): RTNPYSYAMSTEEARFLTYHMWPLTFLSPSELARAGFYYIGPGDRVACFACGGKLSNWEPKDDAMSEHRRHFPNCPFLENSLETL
pIC50: −log10 of the molar value.

# return recorded pIC50 for entry C[C@@H]1CN(CC(=O)N2CC(C)(C)c3[nH]c(=O)c(Cc4ccc(F)cc4)cc32)[C@@H](CN2CCC(COc3cccc(OCC4CCN(C[C@H]5CN[C@H](C)CN5CC(=O)N5CC(C)(C)c6[nH]c(=O)c(Cc7ccc(F)cc7)cc65)CC4)c3)CC2)CN1 [Example 107]
5.50 to 6.00

# return recorded pIC50 for entry C[C@@H]1CN(CC(=O)N2CC(C)(C)c3[nH]c(=O)c(Cc4ccc(F)cc4)cc32)[C@@H](CN2CCO[C@H](C(=O)Nc3cccc(NC(=O)[C@@H]4CN(C[C@H]5CN[C@H](C)CN5CC(=O)N5CC(C)(C)c6[nH]c(=O)c(Cc7ccc(F)cc7)cc65)CCO4)c3)C2)CN1 [Compound 140]
5.50 to 6.00

# return recorded pIC50 for entry C[C@@H]1CN(CC(=O)N2CC(C)(C)c3[nH]c(=O)c(Cc4ccc(F)cc4F)cc32)[C@@H](CN2CCO[C@H](COc3cccc(OC[C@@H]4CN(C[C@H]5CN[C@H](C)CN5CC(=O)N5CC(C)(C)c6[nH]c(=O)c(Cc7ccc(F)cc7F)cc65)CCO4)c3)C2)CN1 [Compound 190]
5.00 to 5.50

# return recorded pIC50 for entry C[C@@H]1CN(CC(=O)N2CC(C)(C)c3[nH]c(=O)c(Cc4ccc(F)cc4)cc32)[C@@H](CN2CCN(CCc3cn(CCCC(=O)N4CCN(C[C@H]5CN[C@H](C)CN5CC(=O)N5CC(C)(C)c6[nH]c(=O)c(Cc7ccc(F)cc7)cc65)[C@H](C)C4)nn3)C[C@H]2C)CN1 [Compound 157]
5.50 to 6.00
